Target: human FXR (NR1H4) (Homo sapiens (Human))
Assay: Human FXR (NR1H4) Assay (Gal4 promoter driven luciferase reporter, Indigo Bioscience kit)
Type: cell-based
Conditions: read-out: Efficacy (%)
measurement.type: Emax (%)
// return numeric value only (unit: %, not printed)

Prompt: Sample CC[C@H]1[C@@H](O)[C@@H]2[C@H](CC[C@]3(C)[C@@H]([C@H](C)CCOC(=O)Nc4ccc5ccccc5c4)CC[C@@H]23)[C@@]2(C)CC[C@@H](O)C[C@@H]12 — what was its Emax?
Response: 101

Prompt: Sample CC[C@H]1[C@@H](O)[C@@H]2[C@H](CC[C@]3(C)[C@@H]([C@H](C)CCCOC(=O)N4CCOCC4)CC[C@@H]23)[C@@]2(C)CC[C@@H](O)C[C@@H]12 — what was its Emax?
Response: 256

Prompt: Sample CC[C@H]1[C@@H](O)[C@@H]2[C@H](CC[C@]3(C)[C@@H]([C@H](C)CCOC(=O)NS(=O)(=O)C[C@]45CCC(CC4=O)C5(C)C)CC[C@@H]23)[C@@]2(C)CC[C@@H](O)C[C@@H]12 — what was its Emax?
Response: 366

---

Biological target: human FXR (NR1H4) (Homo sapiens (Human), UniProt Q96RI1)
Sequence (Q96RI1 whole entry, the tested form may be a part): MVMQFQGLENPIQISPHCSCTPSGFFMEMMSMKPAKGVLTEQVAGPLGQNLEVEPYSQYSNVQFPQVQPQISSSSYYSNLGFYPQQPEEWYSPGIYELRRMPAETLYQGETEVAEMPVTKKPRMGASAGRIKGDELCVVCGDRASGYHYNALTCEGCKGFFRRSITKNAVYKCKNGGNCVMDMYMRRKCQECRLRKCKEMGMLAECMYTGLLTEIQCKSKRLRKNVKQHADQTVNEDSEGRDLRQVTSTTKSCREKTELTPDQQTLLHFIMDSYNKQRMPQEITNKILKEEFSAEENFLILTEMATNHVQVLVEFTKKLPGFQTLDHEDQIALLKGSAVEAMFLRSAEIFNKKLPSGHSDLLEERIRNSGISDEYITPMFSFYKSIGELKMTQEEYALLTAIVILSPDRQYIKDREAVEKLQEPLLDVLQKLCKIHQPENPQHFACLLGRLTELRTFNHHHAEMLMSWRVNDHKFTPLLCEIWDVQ
Experiment: Human FXR (NR1H4) Assay (Gal4 promoter driven luciferase reporter, Indigo Bioscience kit);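 on Efficacy (%): 100% equals the efficacy of CDCA; efficacy normalized to CDCA set as 100%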
Format: cell-based
Conditions: read-out: Efficacy (%)
measurement.type: Emax (%)
// return numeric value only (unit: %, not printed)

Prompt: Sample CC[C@H]1[C@@H](O)[C@@H]2[C@H](CC[C@]3(C)[C@@H]([C@H](C)COC(=O)NS(=O)(=O)c4ccc(-c5ncccn5)cc4)CC[C@@H]23)[C@@]2(C)CC[C@@H](O)C[C@@H]12 — what was its Emax?
Response: 205

Prompt: Sample CC[C@H]1[C@@H](O)[C@@H]2[C@H](CC[C@]3(C)[C@@H]([C@H](C)CCCOC(=O)NS(C)(=O)=O)CC[C@@H]23)[C@@]2(C)CC[C@@H](O)C[C@@H]12 — what was its Emax?
Response: 130

Prompt: Sample CC[C@H]1[C@@H](O)[C@@H]2[C@H](CC[C@]3(C)[C@@H]([C@H](C)COC(=O)NS(=O)(=O)c4ccc(OC(F)(F)F)cc4)CC[C@@H]23)[C@@]2(C)CC[C@@H](O)C[C@@H]12 — what was its Emax?
Response: 298

Prompt: Sample CC[C@H]1[C@@H](O)[C@@H]2[C@H](CC[C@]3(C)[C@@H]([C@H](C)CCOC(=O)N4CC(=O)N(Cc5ccccc5)S4(=O)=O)CC[C@@H]23)[C@@]2(C)CC[C@@H](O)C[C@@H]12 — what was its Emax?
Response: 142

---

So I've got a bunch of molecules here, and I need their pEC50 values.
Target: human FXR (NR1H4) (Homo sapiens (Human), UniProt Q96RI1)
Test: Human FXR (NR1H4) Assay (Gal4 promoter driven luciferase reporter, Indigo Bioscience kit)
Details: Human FXR (NR1H4) Assay, potency ranges
pEC50: −log10 of the molar value.

Prompt: Sample CC[C@H]1[C@@H](O)[C@@H]2[C@H](CC[C@]3(C)[C@@H]([C@H](C)CCOC(=O)NS(=O)(=O)N4CCCC4)CC[C@@H]23)[C@@]2(C)CC[C@@H](O)C[C@@H]12 [Example 51] — what was its pEC50?
Response: > 7.00

Prompt: Sample CC[C@H]1[C@@H](O)[C@@H]2[C@H](CC[C@]3(C)[C@@H]([C@H](C)CCOC(=O)NS(=O)(=O)C4CCCCC4)CC[C@@H]23)[C@@]2(C)CC[C@@H](O)C[C@@H]12 [Example 104-a] — what was its pEC50?
Response: > 7.00

Prompt: Sample CC[C@H]1[C@@H](O)[C@@H]2[C@H](CC[C@]3(C)[C@@H]([C@H](C)CCOC(=O)NCC4CCCCC4)CC[C@@H]23)[C@@]2(C)CC[C@@H](O)C[C@@H]12 [Example 188] — what was its pEC50?
Response: 6.00 to 7.00

Prompt: Sample CC[C@H]1[C@@H](O)[C@@H]2[C@H](CC[C@]3(C)[C@@H]([C@H](C)COC(=O)NS(=O)(=O)c4ccc(C(C)(C)C)cc4)CC[C@@H]23)[C@@]2(C)CC[C@@H](O)C[C@@H]12 [Example 4] — what was its pEC50?
Response: > 7.00

Prompt: Sample CC[C@H]1[C@@H](O)[C@@H]2[C@H](CC[C@]3(C)[C@@H]([C@H](C)CCOC(=O)N4CCC(O)CC4)CC[C@@H]23)[C@@]2(C)CC[C@@H](O)C[C@@H]12 [Example 169] — what was its pEC50?
Response: 6.00 to 7.00

Prompt: Sample CCCCS(=O)(=O)NC(=O)OCC[C@@H](C)[C@H]1CC[C@H]2[C@@H]3[C@H](O)[C@H](CC)[C@@H]4C[C@H](O)CC[C@]4(C)[C@H]3CC[C@]12C [Example 57] — what was its pEC50?
Response: > 7.00

Prompt: Sample CC[C@H]1[C@@H](O)[C@@H]2[C@H](CC[C@]3(C)[C@@H]([C@H](C)CCCOC(=O)NS(=O)(=O)C(C)C)CC[C@@H]23)[C@@]2(C)CC[C@@H](O)C[C@@H]12 [Example 114] — what was its pEC50?
Response: 6.00 to 7.00

Prompt: Sample CC[C@H]1[C@@H](O)[C@@H]2[C@H](CC[C@]3(C)[C@@H]([C@H](C)COC(=O)NS(=O)(=O)c4ccc5ccccc5c4)CC[C@@H]23)[C@@]2(C)CC[C@@H](O)C[C@@H]12 [Example 12] — what was its pEC50?
Response: > 7.00

Prompt: Sample CC[C@H]1[C@@H](O)[C@@H]2[C@H](CC[C@]3(C)[C@@H]([C@H](C)CCOC(=O)NS(=O)(=O)N4CC(C)(C)C4)CC[C@@H]23)[C@@]2(C)CC[C@@H](O)C[C@@H]12 [Example 104-g] — what was its pEC50?
Response: > 7.00

Prompt: Sample CC[C@H]1[C@@H](O)[C@@H]2[C@H](CC[C@]3(C)[C@@H]([C@H](C)CCOC(=O)NCc4ccccc4)CC[C@@H]23)[C@@]2(C)CC[C@@H](O)C[C@@H]12 [Example 125] — what was its pEC50?
Response: 6.00 to 7.00

Prompt: Sample CC[C@H]1[C@@H](O)[C@@H]2[C@H](CC[C@]3(C)[C@@H]([C@H](C)COC(=O)NS(=O)(=O)c4ccc(-n5ccnc5)cc4)CC[C@@H]23)[C@@]2(C)CC[C@@H](O)C[C@@H]12 [Example 44-h] — what was its pEC50?
Response: 6.00 to 7.00

Prompt: Sample CC[C@H]1[C@@H](O)[C@@H]2[C@H](CC[C@]3(C)[C@@H]([C@H](C)CCOC(=O)NS(=O)(=O)c4ccc(C(C)(C)C(=O)OC)cc4)CC[C@@H]23)[C@@]2(C)CC[C@@H](O)C[C@@H]12 [Example 55] — what was its pEC50?
Response: > 7.00

Prompt: Sample CC[C@H]1[C@@H](O)[C@@H]2[C@H](CC[C@]3(C)[C@@H]([C@H](C)CCOC(=O)NS(=O)(=O)c4ccc(-c5ccccc5)cc4)CC[C@@H]23)[C@@]2(C)CC[C@@H](O)C[C@@H]12 [Example 68] — what was its pEC50?
Response: 6.00 to 7.00

Prompt: Sample CC[C@H]1[C@@H](O)[C@@H]2[C@H](CC[C@]3(C)[C@@H]([C@H](C)CCOC(=O)NS(=O)(=O)c4cccnc4)CC[C@@H]23)[C@@]2(C)CC[C@@H](O)C[C@@H]12 [Example 95] — what was its pEC50?
Response: 5.00 to 6.00

Prompt: Sample CC[C@H]1[C@@H](O)[C@@H]2[C@H](CC[C@]3(C)[C@@H]([C@H](C)COC(=O)NS(=O)(=O)c4ccc(OC(F)(F)F)cc4)CC[C@@H]23)[C@@]2(C)CC[C@@H](O)C[C@@H]12 [Example 6] — what was its pEC50?
Response: 6.00 to 7.00

Prompt: Sample CC[C@H]1[C@@H](O)[C@@H]2[C@H](CC[C@]3(C)[C@@H]([C@H](C)CCOC(=O)N4CCCCC4CO)CC[C@@H]23)[C@@]2(C)CC[C@@H](O)C[C@@H]12 (stereo partly drawn) [Example 180] — what was its pEC50?
Response: 6.00 to 7.00

Prompt: Sample CC[C@H]1[C@@H](O)[C@@H]2[C@H](CC[C@]3(C)[C@@H]([C@H](C)CCOC(=O)N[C@H](C)CCO)CC[C@@H]23)[C@@]2(C)CC[C@@H](O)C[C@@H]12 [Example 172] — what was its pEC50?
Response: 6.00 to 7.00

Prompt: Sample CC[C@H]1[C@@H](O)[C@@H]2[C@H](CC[C@]3(C)[C@@H]([C@H](C)CCOC(=O)NS(C)(=O)=O)CC[C@@H]23)[C@@]2(C)CC[C@@H](O)C[C@@H]12 [Example 97] — what was its pEC50?
Response: 6.00 to 7.00
